Parameter IC50: see the listing below.
- System: TE-441-T
- experimental protocol: cells
- Type: functional, cell-based
- assay context: Homo sapiens
- Description: SANGER: Inhibition of human TE-441-T cell growth in a cell viability assay.

- molecule: "N#C/C(=C1/Nc2ccccc2S1)c1ccnc(NCCc2cccnc2)n1"
  IC50: "> 8000 nM"
- molecule: "O=c1[nH]c2ccccc2n1C1CCN(Cc2ccc(-c3nc4cc5[nH]cnc5cc4nc3-c3ccccc3)cc2)CC1"
  IC50: "> 2560 nM"
- molecule: "CCn1c(-c2nonc2N)nc2cnc(Oc3cccc(NC(=O)c4ccc(OCCN5CCOCC5)cc4)c3)cc21 [GSK-269962A]"
  IC50: "> 2500 nM"
- molecule: "Cc1ccc(NC(=O)c2cccc(C(C)(C)C#N)c2)cc1Nc1ccc2ncn(C)c(=O)c2c1"
  IC50: "2810 nM"
- molecule: "Cc1[nH]c(/C=C2\\C(=O)Nc3ccc(S(=O)(=O)Cc4c(Cl)cccc4Cl)cc32)c(C)c1C(=O)N1CCC[C@@H]1CN1CCCC1"
  IC50: "> 2000 nM"
- molecule: "Fc1cc(-c2cc[nH]/c(=N/c3ccc(-n4cnc(N5CCOCC5)n4)cc3)n2)cc(N2CCOCC2)c1"
  IC50: "316 nM"
